For each entry below, report its pKd value.
- study_target: recombinant Nedd4L WW2 domain
- Sequence (Q96PU5 whole entry, the tested form may be a part): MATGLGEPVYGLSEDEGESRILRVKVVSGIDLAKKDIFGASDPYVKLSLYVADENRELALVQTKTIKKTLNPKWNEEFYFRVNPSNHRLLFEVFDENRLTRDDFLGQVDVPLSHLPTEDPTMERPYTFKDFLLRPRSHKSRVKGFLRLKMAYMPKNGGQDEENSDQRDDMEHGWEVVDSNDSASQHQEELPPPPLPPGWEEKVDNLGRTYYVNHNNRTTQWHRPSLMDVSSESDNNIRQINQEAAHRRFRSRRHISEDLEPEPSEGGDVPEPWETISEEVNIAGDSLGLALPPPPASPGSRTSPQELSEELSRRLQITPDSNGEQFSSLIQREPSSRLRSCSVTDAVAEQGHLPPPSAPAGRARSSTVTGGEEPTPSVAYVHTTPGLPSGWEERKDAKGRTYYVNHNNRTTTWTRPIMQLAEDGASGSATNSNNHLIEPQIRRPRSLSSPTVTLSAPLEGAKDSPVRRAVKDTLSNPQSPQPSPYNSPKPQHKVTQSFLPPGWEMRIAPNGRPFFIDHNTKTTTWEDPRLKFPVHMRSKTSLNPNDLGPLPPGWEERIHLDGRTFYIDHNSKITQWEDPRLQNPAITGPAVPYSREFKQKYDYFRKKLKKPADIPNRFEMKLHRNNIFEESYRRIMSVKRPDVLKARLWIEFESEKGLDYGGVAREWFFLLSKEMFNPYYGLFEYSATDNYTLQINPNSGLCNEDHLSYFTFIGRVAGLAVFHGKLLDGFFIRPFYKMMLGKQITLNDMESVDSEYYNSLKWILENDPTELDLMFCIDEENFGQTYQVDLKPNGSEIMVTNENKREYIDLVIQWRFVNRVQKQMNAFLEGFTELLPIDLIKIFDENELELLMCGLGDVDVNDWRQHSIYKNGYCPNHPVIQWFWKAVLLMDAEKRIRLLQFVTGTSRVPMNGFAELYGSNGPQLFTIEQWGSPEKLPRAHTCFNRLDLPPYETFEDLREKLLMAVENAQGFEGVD
- procedure_details: ITC
Where no end group is shown, it is not given here. [ ]: non-standard residue; d: D form. pT = C[C@@H](OP(=O)(O)O)[C@H](N)C(=O)O
Bear in mind: pKd is minus log10 of a mol/L concentration; give just that figure.

For IPE[pT]PPPGYISED [Smad2 pT-PY motif peptide (phosphothreonine)] , what is its reported pKd?
5.11

For IPE[pT]PPPGYLSED [Smad3 pT-PY motif peptide (phosphothreonine)] , what is its reported pKd?
5.39
